Data provenance is patent US20240025862A1.

System: Echinochloa crus-galli (ECHCG)
Experiment: Post-emergence herbicidal action, greenhouse pot test (also comparative test C)
Type: in vivo
Conditions: 1.25 g/ha, rated visually after about 3 weeks vs untreated controls, 100% = plants have died
readout-name: Post-emergence action at 1.25 g/ha against ECHCG in %

* Cn1c(C(F)(F)F)cc(=O)n(-c2cc(Oc3ccccc3OCC(=O)OCc3ccncc3)c(Cl)cc2F)c1=O | 80%
* Cn1c(C(F)(F)F)cc(=O)n(-c2cc(Oc3cc(F)ccc3OCC(=O)OCc3ccccn3)c(Cl)cc2F)c1=O | 100%
* Cn1c(C(F)(F)F)cc(=O)n(-c2cc(Sc3ccccc3OCC(=O)OCC3CCCO3)c(Cl)cc2F)c1=O (racemic) | 100%
* CCOCCOC(=O)COc1ccccc1Oc1cc(-n2c(=O)cc(C(F)(F)F)n(C)c2=O)c(F)cc1C#N | 80%
* Cn1c(C(F)(F)F)cc(=O)n(-c2cc(Oc3ccccc3OCC(=O)OCc3cccnn3)c(Br)cc2F)c1=O | 100%
* COCCOC(=O)COc1ccccc1Oc1cc(-n2c(=O)cc(C(F)(F)F)n(C)c2=O)c(F)cc1Br | 80%
* COCCOCCOC(=O)COc1ccccc1Sc1cc(-n2c(=O)cc(C(F)(F)F)n(C)c2=O)c(F)cc1Cl | 90%
* Cn1c(C(F)(F)F)cc(=O)n(-c2cc(Oc3ccccc3OCC(=O)OCC#N)c([N+](=O)[O-])cc2F)c1=O | 100%
* Cn1c(C(F)(F)F)cc(=O)n(-c2cc(Oc3ccccc3OCC(=O)OCC3CCOC3)c(Cl)cc2F)c1=O (stereo not drawn) | 80%
* Cn1c(C(F)(F)F)cc(=O)n(-c2cc(Oc3ccccc3OCC(=O)OCc3ccccn3)c(Cl)cc2F)c1=O | 90%
* COCCCOC(=O)COc1ccccc1Sc1cc(-n2c(=O)cc(C(F)(F)F)n(C)c2=O)c(F)cc1Cl | 90%
* Cn1c(C(F)(F)F)cc(=O)n(-c2cc(Oc3ccccc3OCC(=O)OCC#N)c(C#N)cc2F)c1=O | 100%
* Cn1c(C(F)(F)F)cc(=O)n(-c2cc(Oc3ccccc3OCC(=O)OC3COC3)c(Cl)cc2F)c1=O | 100%
* COCCOC(=O)COc1ccccc1Oc1cc(-n2c(=O)cc(C(F)(F)F)n(C)c2=O)c(F)cc1[N+](=O)[O-] | 90%
* Cn1c(C(F)(F)F)cc(=O)n(-c2cc(Oc3ccccc3OCC(=O)OCCOC(F)(F)F)c(Cl)cc2F)c1=O | 90%

----------
Tested on: Echinochloa crus-galli (ECHCG)
Assay: Post-emergence herbicidal action, greenhouse pot test (also comparative test C)
Format: in vivo
Conditions: 1.25 g/ha, rated visually after about 3 weeks vs untreated controls, 100% = plants have died
Post-emergence action at 1.25 g/ha against ECHCG in % values for the compounds below.
readout-name: Post-emergence action at 1.25 g/ha against ECHCG in %

* COCCOCCOC(=O)COc1ccccc1Oc1cc(-n2c(=O)cc(C(F)(F)F)n(C)c2=O)c(F)cc1[N+](=O)[O-] [I.6-23] | 80%
* COCCOC(=O)COc1ccccc1Oc1cc(-n2c(=O)cc(C(F)(F)F)n(C)c2=O)c(F)cc1Cl [I.7-1] | 90%
* COCCOC(=O)COc1cccc(F)c1Oc1cc(-n2c(=O)cc(C(F)(F)F)n(C)c2=O)c(F)cc1Cl [I.19-1] | 100%
* Cn1c(C(F)(F)F)cc(=O)n(-c2cc(Oc3ccccc3OCC(=O)OCC3CCCO3)c(Cl)cc2F)c1=O (stereo not shown) [I.7-71] | 100%

----------
Test system: Glycine max (GLXMA)
Assay: Post-emergence crop plant compatibility, greenhouse pot test
Format: in vivo
Conditions: 20 g/ha
Reported Post-emergence action against GLXMA in % values are given for each entry in this list.
readout-name: Post-emergence action against GLXMA in % (%)

- COCCOCCOC(=O)C(C)Oc1ccccc1Sc1cc(-n2c(=O)cc(C(F)(F)F)n(C)c2=O)c(F)cc1Cl (racemic) [I.2-23]: 20
- COCCOC(=O)COc1ccccc1Oc1cc(-n2c(=O)cc(C(F)(F)F)n(C)c2=O)c(F)cc1Cl [I.7-1]: 10
- COCCOC(=O)C(C)Oc1ccccc1Sc1cc(-n2c(=O)cc(C(F)(F)F)n(C)c2=O)c(F)cc1Cl (racemic) [I.2-1]: 20
- CCOCCOC(=O)C(C)Oc1ccccc1Sc1cc(-n2c(=O)cc(C(F)(F)F)n(C)c2=O)c(F)cc1Cl (racemic) [I.2-2]: 10

----------
Recorded pest or weed control at 20 g/ha values for a group of compounds are listed next.
Tested on: Avena fatua (AVEFA)
Assay: Post-emergence herbicidal action, greenhouse pot test
Assay type: in vivo
Details: Avena fatua, 504 h, 20 g/ha, rated visually after about 3 weeks vs untreated controls, 100% = plants have died, read-out: Post-emergence action at 20 g/ha against AVEFA in %
readout-name: pest or weed control at 20 g/ha (%)

* Cn1c(C(F)(F)F)cc(=O)n(-c2cc(Oc3ccccc3OCC(=O)OCC#N)c(Br)cc2F)c1=O | 80
* Cn1c(C(F)(F)F)cc(=O)n(-c2cc(Oc3ccccc3OCC(=O)OCC3CCCO3)c(Cl)cc2F)c1=O (centres unmarked) | 90
* Cn1c(C(F)(F)F)cc(=O)n(-c2cc(Oc3ccccc3OCC(=O)OCC#N)c([N+](=O)[O-])cc2F)c1=O | 80
* Cn1c(C(F)(F)F)cc(=O)n(-c2cc(Oc3ccccc3OCC(=O)OCC#N)c(Cl)cc2F)c1=O | 100
* Cn1c(C(F)(F)F)cc(=O)n(-c2cc(Oc3ccccc3OCC(=O)OCC#N)c(C#N)cc2F)c1=O | 80
* COCC(C)OC(=O)COc1ccccc1Oc1cc(-n2c(=O)cc(C(F)(F)F)n(C)c2=O)c(F)cc1Cl (centres unmarked) | 80
* COCCOC(=O)COc1ccccc1Oc1cc(-n2c(=O)cc(C(F)(F)F)n(C)c2=O)c(F)cc1[N+](=O)[O-] | 100
* Cn1c(C(F)(F)F)cc(=O)n(-c2cc(Oc3ccccc3OCC(=O)OCC[N+](=O)[O-])c(Cl)cc2F)c1=O | 90
* Cn1c(C(F)(F)F)cc(=O)n(-c2cc(Oc3ccccc3OCC(=O)OCc3ccccn3)c(Cl)cc2F)c1=O | 90
* COCCOC(=O)COc1ccccc1Oc1cc(-n2c(=O)cc(C(F)(F)F)n(C)c2=O)c(F)cc1Cl | 80
* CC(C#N)OC(=O)COc1ccccc1Oc1cc(-n2c(=O)cc(C(F)(F)F)n(C)c2=O)c(F)cc1Cl (centres unmarked) | 80

----------
Overview of reported Post-emergence action at 20 g/ha against HORMU in % across a group of compounds:
System: Hordeum murinum (HORMU)
Assay: Post-emergence herbicidal action, greenhouse pot test
Type: in vivo
Conditions: 20 g/ha, rated visually after about 3 weeks vs untreated controls, 100% = plants have died
Protocol: Seeds of monocotyledonous and dicotyledonous weeds and crop plants were placed in sandy loam in plastic or wood-fiber pots, covered with soil and cultivated in a greenhouse under controlled growth conditions. 2 to 3 weeks after sowing, the test plants were treated at the one-leaf stage. […]
readout-name: Post-emergence action at 20 g/ha against HORMU in %

* COCCOCCOC(=O)COc1ccccc1Sc1cc(-n2c(=O)cc(C(F)(F)F)n(C)c2=O)c(F)cc1Cl | 100%
* COCCOC(=O)COc1ccccc1Sc1cc(-n2c(=O)cc(C(F)(F)F)n(C)c2=O)c(F)cc1Cl | 100%
* Cn1c(C(F)(F)F)cc(=O)n(-c2cc(Sc3ccccc3OCC(=O)OCC3CCCO3)c(Cl)cc2F)c1=O (racemic) | 90%
* COCCCOC(=O)COc1ccccc1Sc1cc(-n2c(=O)cc(C(F)(F)F)n(C)c2=O)c(F)cc1Cl | 90%

----------
System: Triticum aestivum (TRZAS)
Experiment: Post-emergence crop plant compatibility, greenhouse pot test
Assay type: in vivo
Settings: 1.25 g/ha, vs untreated controls
readout-name: Post-emergence action against TRZAS (crop plant compatibility) (%)

- Cn1c(C(F)(F)F)cc(=O)n(-c2cc(Oc3ccccc3OCC(=O)OCc3cccnn3)c(C#N)cc2F)c1=O: 20
- COCCOC(=O)COc1ccccc1Oc1cc(-n2c(=O)cc(C(F)(F)F)n(C)c2=O)c(F)cc1Cl: 20
- COCCOC(=O)COc1ccccc1Oc1cc(-n2c(=O)cc(C(F)(F)F)n(C)c2=O)c(F)cc1C#N: 0
- COCCOC(=O)COc1ccc(F)cc1Oc1cc(-n2c(=O)cc(C(F)(F)F)n(C)c2=O)c(F)cc1Cl: 20
- Cn1c(C(F)(F)F)cc(=O)n(-c2cc(Sc3ccccc3OCC(=O)OCC3CCOC3)c(Cl)cc2F)c1=O (racemic): 20
- CC(Oc1ccccc1Sc1cc(-n2c(=O)cc(C(F)(F)F)n(C)c2=O)c(F)cc1Cl)C(=O)OCC1CCCO1 (mixture of isomers): 20
- COCCOCCOC(=O)COc1ccccc1Sc1cc(-n2c(=O)cc(C(F)(F)F)n(C)c2=O)c(F)cc1Cl: 20
- Cn1c(C(F)(F)F)cc(=O)n(-c2cc(Oc3ccccc3OCC(=O)OCc3ccccn3)c(Br)cc2F)c1=O: 20
- Cn1c(C(F)(F)F)cc(=O)n(-c2cc(Oc3ccccc3OCC(=O)OCCOC(F)(F)F)c([N+](=O)[O-])cc2F)c1=O: 10
- Cn1c(C(F)(F)F)cc(=O)n(-c2cc(Oc3ccccc3OCC(=O)OCC[N+](=O)[O-])c(Br)cc2F)c1=O: 0
- Cn1c(C(F)(F)F)cc(=O)n(-c2cc(Oc3ccccc3OCC(=O)OCc3cccnn3)c(Br)cc2F)c1=O: 10
- Cn1c(C(F)(F)F)cc(=O)n(-c2cc(Oc3ccccc3OCC(=O)OCc3ccccn3)c(Cl)cc2F)c1=O: 20
- Cn1c(C(F)(F)F)cc(=O)n(-c2cc(Oc3ccccc3OCC(=O)OCC[N+](=O)[O-])c(Cl)cc2F)c1=O: 20
- COCC(C)OC(=O)COc1ccccc1Oc1cc(-n2c(=O)cc(C(F)(F)F)n(C)c2=O)c(F)cc1Cl (stereo not drawn): 20
- Cn1c(C(F)(F)F)cc(=O)n(-c2cc(Oc3ccccc3OCC(=O)OCc3ccccn3)c(C#N)cc2F)c1=O: 0
